B1: OR4K15 (parent)
chain: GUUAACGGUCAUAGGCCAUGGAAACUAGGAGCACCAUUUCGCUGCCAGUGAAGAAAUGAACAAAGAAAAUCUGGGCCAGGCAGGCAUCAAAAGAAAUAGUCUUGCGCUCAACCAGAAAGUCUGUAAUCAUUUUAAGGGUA

variants of: B1; assay: self-cleavage, relative activity (ratio to wild type); higher = more cleavage; in vitro, sequencing; the parent is a self-cleaving ribozyme
Kindly supply the reported self-cleavage values for the records listed here.
Output spec: single numeric token, no unit.

Prompt: I have this variant here, A11G U108A , and I need its recorded self-cleavage.
Completion: 0.03

Prompt: Would you kindly repeat that for U87C U100A ?
Completion: 0.18

Prompt: Continue with U2C U19A
Completion: 1.16

Prompt: And G75A G119A ?
Completion: 0.17

Prompt: Now this one: A98U U127C
Completion: 1.98

Prompt: Same question for C76U A78C please.
Completion: 0.11

Prompt: Another variant to check: U19A A69G
Completion: 1.14

Prompt: # iterate: A24C U122C
Completion: 1.49

Prompt: Follow-up entry: C16A U124A
Completion: 0.4

Prompt: Again, but for A60U A82G
Completion: 0.66

Prompt: A55C , same question.
Completion: 0.94

Prompt: Also need U87C U124C , thanks.
Completion: 0.83

Prompt: Now consider G80A A135G .
Completion: 0.31

Prompt: Another variant to look at: C34U U139A
Completion: 1.61

Prompt: Could you do the same for A36C U130C , please?
Completion: 2.1

Prompt: Same again, this time with C17A G73A
Completion: 0.16

Prompt: Moving on to A56G U103A
Completion: 0.04

Prompt: Param item: U70C G75A
Completion: 0.21

Prompt: // next record C45A U131A
Completion: 1.29

Prompt: Further, for U37G U130C ?
Completion: 0.05

Prompt: What do we get for U12C A18C ?
Completion: 0.58

Prompt: Continue with U49C U120C
Completion: 0.52

Prompt: Entry A51G A62C please
Completion: 1.58

Prompt: Again, but for G79U U87C
Completion: 0.11

Prompt: # iterate: U37A C61U
Completion: 0.86

Prompt: Next variant up: U57C U132C
Completion: 0.52

Prompt: For A55G A94C then?
Completion: 1.34

Prompt: And U19C ?
Completion: 1.17

Prompt: Consider next the variant A5C A110G in the same way.
Completion: 0.33

Prompt: # iterate: C46U U130C
Completion: 1.4

Prompt: Moving on to U102A G138A
Completion: 0.55

Prompt: And A89U A110U ?
Completion: 1.46

Prompt: Then what about the variant G58A U132C ?
Completion: 1.64

Prompt: Here is the next variant: U2C U39A
Completion: 1.17

Prompt: Next variant: U43C U131C
Completion: 1.36

Prompt: Try this variant too: A23G C101U
Completion: 0.35

Prompt: What about this variant? G44A U108C
Completion: 0.01

Prompt: Field entry: A33U U49G
Completion: 2.25

Prompt: Field entry: C6U G79U
Completion: 0.11

Prompt: Okay, and U38C A90G ?
Completion: 1.4

Prompt: Moving on to A5G U139C
Completion: 1.1

Prompt: Another variant to check: A62U A117G
Completion: 1.64

Prompt: Another variant: G14U C105U
Completion: 0.07

Prompt: Record: A78G U124C
Completion: 0.14

Prompt: Please answer likewise for A18U A92U
Completion: 1.25

Prompt: Now try G53A A91G .
Completion: 1.6
